# target-desc: Gal(b1-3)GlcNAc(b1-3)Gal(b1-4)[Fuc(a1-3)]GlcNAc(b1-6)[Gal(b1-3)GlcNAc(b1-3)]Gal(b1-4)Glc
# assay-name: glycan array binding signal (z-score within array); higher = stronger binding
# protocol-conditions: glycan notation: IUPAC condensed, linker removed
The full list was thinned out, with the strongest signals kept by preference.
metric: glycan array binding signal (z-score)
Answers are plain numbers.

Give reported glycan array binding signal (z-score) value for HBHA-Rv (Mycobacterium tuberculosum), P0A5P6 (protein) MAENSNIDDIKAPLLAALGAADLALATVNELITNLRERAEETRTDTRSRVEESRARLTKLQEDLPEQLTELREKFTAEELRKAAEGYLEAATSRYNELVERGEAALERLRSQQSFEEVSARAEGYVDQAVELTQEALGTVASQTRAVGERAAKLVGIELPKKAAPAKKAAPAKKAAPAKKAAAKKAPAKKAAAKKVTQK
-0.453
